FYI, the data here is from patent US20110275630A1.

target: ROCK 2 (Homo sapiens, UniProt O75116)
Sequence (O75116 92-354 limits assumed, species assumed): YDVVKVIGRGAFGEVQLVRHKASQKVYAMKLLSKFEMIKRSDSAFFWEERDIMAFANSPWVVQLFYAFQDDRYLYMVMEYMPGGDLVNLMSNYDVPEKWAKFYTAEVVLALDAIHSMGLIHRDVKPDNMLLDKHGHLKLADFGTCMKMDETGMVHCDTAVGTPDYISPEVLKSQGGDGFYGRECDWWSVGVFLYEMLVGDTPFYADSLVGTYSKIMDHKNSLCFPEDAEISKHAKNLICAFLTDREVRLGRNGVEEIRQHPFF
Mark True only for Ki values smaller than 30 nM; exact matches and larger values are False.

Worked cases, answers included:
O=C(Nc1ccc(-c2cccc3c2CNC3=O)cc1)c1cc2ccccc2[nH]1 [Example 140] = True
O=C(Nc1ccc(-c2cccc3c2CNC3=O)cc1)c1cc2ccccc2o1 [Example 132] = False
O=C(Nc1ccc(-c2cccc3c2CNC3=O)cc1)c1cc2cc(F)ccc2[nH]1 [Example 131] = False
NC1CCN(S(=O)(=O)c2cccc(C(=O)Nc3ccc(-c4cccc5c4CNC5=O)cc3)c2)CC1 [Example 137] = True

Below: the item to evaluate.
Inquiry: Input O=C1NCc2c1cccc2-c1ccc(Nc2nc3ccc(Cl)cc3o2)cc1 [Example 139] ; condition: Ki strictly below 30 nM. Does it hold?
Reply text: False
